B1: Zinc finger homeobox protein 4, residues 2183 to 2238; numbered along this chain, Q86UP3 (parent)
chain: SSRTRFTDYQLRVLQDFFDTNAYPKDDEIEQLSTVLNLPTRVIVVWFQNARQKARK

- Variants of: B1
- Assay method text: abundance fitness (aPCA) (normalised: wild type 0, dead -1); higher = more abundant; growth selection in yeast, the domain comes from the species named
- Condition: Homo sapiens
Rule: fulfilled for abundance fitness not less than -0.1, not fulfilled for anything less.

Entry F18C : is its abundance fitness no less than -0.1?
not fulfilled

Entry V13R : is its abundance fitness no less than -0.1?
fulfilled

Entry A22Y : is its abundance fitness no less than -0.1?
not fulfilled

Entry P24W : is its abundance fitness no less than -0.1?
not fulfilled

Entry L36G : is its abundance fitness no less than -0.1?
not fulfilled

Entry S33H : is its abundance fitness no less than -0.1?
fulfilled

Entry E28C : is its abundance fitness no less than -0.1?
not fulfilled

Entry L32D : is its abundance fitness no less than -0.1?
not fulfilled

Entry Y9R : is its abundance fitness no less than -0.1?
fulfilled

Entry F17E : is its abundance fitness no less than -0.1?
not fulfilled

Entry E28D : is its abundance fitness no less than -0.1?
fulfilled

Entry F6Y : is its abundance fitness no less than -0.1?
not fulfilled

Entry Q15E : is its abundance fitness no less than -0.1?
not fulfilled

Entry V13S : is its abundance fitness no less than -0.1?
fulfilled

Entry D16F : is its abundance fitness no less than -0.1?
not fulfilled

Entry T34N : is its abundance fitness no less than -0.1?
not fulfilled

Entry F6T : is its abundance fitness no less than -0.1?
not fulfilled

Entry V35W : is its abundance fitness no less than -0.1?
not fulfilled

Entry S33D : is its abundance fitness no less than -0.1?
not fulfilled

Entry N37L : is its abundance fitness no less than -0.1?
not fulfilled

Entry K25R : is its abundance fitness no less than -0.1?
fulfilled

Entry R5I : is its abundance fitness no less than -0.1?
fulfilled

Entry Q10R : is its abundance fitness no less than -0.1?
not fulfilled

Entry E30T : is its abundance fitness no less than -0.1?
fulfilled

Entry T7P : is its abundance fitness no less than -0.1?
not fulfilled

Entry I29H : is its abundance fitness no less than -0.1?
not fulfilled

Entry Q10C : is its abundance fitness no less than -0.1?
not fulfilled

Entry T7R : is its abundance fitness no less than -0.1?
not fulfilled

Entry K25D : is its abundance fitness no less than -0.1?
not fulfilled

Entry V35L : is its abundance fitness no less than -0.1?
fulfilled

Entry D16Q : is its abundance fitness no less than -0.1?
fulfilled

Entry R5V : is its abundance fitness no less than -0.1?
fulfilled

Entry R5N : is its abundance fitness no less than -0.1?
fulfilled

Entry Q15D : is its abundance fitness no less than -0.1?
fulfilled

Entry T4S : is its abundance fitness no less than -0.1?
fulfilled

Entry Q10W : is its abundance fitness no less than -0.1?
not fulfilled

Entry N21K : is its abundance fitness no less than -0.1?
not fulfilled

Entry I29Y : is its abundance fitness no less than -0.1?
fulfilled

Entry R3V : is its abundance fitness no less than -0.1?
fulfilled

Entry T7Q : is its abundance fitness no less than -0.1?
not fulfilled

Entry E30L : is its abundance fitness no less than -0.1?
fulfilled

Entry D27Q : is its abundance fitness no less than -0.1?
fulfilled

Entry T20R : is its abundance fitness no less than -0.1?
fulfilled

Entry R12L : is its abundance fitness no less than -0.1?
not fulfilled

Entry Y23C : is its abundance fitness no less than -0.1?
not fulfilled

The reported numbers originate from the Human Domainome abundance scans (Beltran et al. 2025).
